Target: P2X4 (Homo sapiens)
Sequence (Q99571 whole entry): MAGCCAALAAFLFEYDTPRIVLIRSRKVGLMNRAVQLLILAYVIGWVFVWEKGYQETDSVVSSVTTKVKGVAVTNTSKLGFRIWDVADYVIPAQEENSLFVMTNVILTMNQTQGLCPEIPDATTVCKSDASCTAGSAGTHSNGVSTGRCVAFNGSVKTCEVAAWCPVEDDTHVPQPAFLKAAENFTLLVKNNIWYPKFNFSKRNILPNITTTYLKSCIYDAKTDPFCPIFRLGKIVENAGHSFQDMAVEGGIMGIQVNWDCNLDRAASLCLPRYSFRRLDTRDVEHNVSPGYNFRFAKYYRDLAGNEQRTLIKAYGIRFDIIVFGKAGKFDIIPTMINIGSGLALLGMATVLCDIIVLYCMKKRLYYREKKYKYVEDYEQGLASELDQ
Assay: Assay B: human P2X4 receptor cell line, mitochondrial photina luminescence (agonist Bz-ATP at EC50)
Assay type: cell-based
Parameters: host or cells: HEK 293 (recombinant, constitutively expressing; with mitochondrial photina in Assay B)
Settings: HEK human P2X4 cell line, photina luminescence, agonist Bz-ATP at EC50, average; read-out: human P2X4 Assay B avg Efficacy
Method: The identification of agonists and antagonists of the P2X4 receptor from humans and […] also the quantification of the activity of the compounds of the invention was performed by use of recombinant cell lines. […] The test cell lines constitutively express the mouse or human P2X4 receptors. […] The strength of Fluo8 fluorescence signal or photina luminescence signal corresponds to the level of receptor activation. […] The resulting light signal is measured immediately in the luminometer.
Measured Emax by item
Give your result in % as a bare value.

Some compounds with recorded Emax:
- Compound: "NS(=O)(=O)c1cc(NC(=O)Cc2ccccc2)ccc1Oc1ccccc1OC(F)(F)F [Example 074]"
  Tested System: "P2X4 (Homo sapiens)"
  Unit Label: "%"
  Emax: 52
- Compound: "NS(=O)(=O)c1cc(NC(=O)Cc2ccccc2Cl)ccc1Oc1ccc(N2CCOC2=O)cc1 [Example 063]"
  Tested System: "P2X4 (Homo sapiens)"
  Unit Label: "%"
  Emax: 70

Fill blank: measured Emax of the compound NS(=O)(=O)c1cc(NC(=O)Cc2ccccc2Cl)ccc1OCC1CCCO1 (stereo not shown) [Example 161] is ____.
74

# get_value(readout='Emax', item= NS(=O)(=O)c1cc(NC(=O)Cc2ccccc2Cl)ccc1OC1CCCCC1 [Example 200] )
83

Cited source: patent US20180338980A1
